# Test system: Nicotiana tabacum
# experimentalDetails: Cytokinin-like effect in tobacco assessed as stimulation of callus growth at 10 umol/L relative to 6-benzylaminopurine
# Type: functional
# studyConditions: at 10 µM
Binary call on Activity with cut-off 90%: strictly below means T, and equality or higher means F.

>>> df
                          smilesrepr  grouplabel
0       C/C(=C\CNc1ncnc2[nH]cnc12)CO           F
1    COc1ccccc1Nc1nc(Cl)nc2[nH]cnc12           F
2  Clc1ccc(Nc2nc(Cl)nc3[nH]cnc23)cc1           T
3      COc1cccc(Nc2ncnc3[nH]cnc23)c1           T
